Cited source: patent US10265275B2

Assay: Potentiometric titration, first pKa
Format: physicochemical
Settings: aqueous 100 mM KCl solution; 100 mM KCl, degassed, KOH titration; read-out: First pKa
PROPERTY LABEL: pKa

>>> print(df.to_string())
                                   compound  reported_value
0           Oc1ccccc1O [Catechol, catechol]             9.5
1  Oc1cccc(O)c1O [PG, 1,2,3-trihydroxybenzene]             9.3
